Data provenance: PubChem BioAssay AID1985

# Tested on: S. Typhi PhoP-promoter GFP reporter, fluorescence, 4 h
# measurement_notes: PhoP regulon inhibitor project modified counter assay, GFP fluorescence readout, dose response (AID 1985)
Listed here: items and their measured IC50.

compound: O=C(NNC(=S)NC(=O)c1ccco1)c1ccc(F)cc1
IC50: 96.8 µM

compound: C#CCOCCOCCOCCNc1nc(N2CCN(C(=O)CCCCCCCCCCNC(=O)Cn3cc(CCCCCN)nn3)CC2)nc(N2CCN(C(=O)CCCCCCCCCCNC(=O)[C@H]([C@@H](C)CC)n3cc(CCCCCN)nn3)CC2)n1
IC50: 71.3 µM

compound: Cc1cc(OCCCCCN2CCCC2)ccc1Cl
IC50: 112 µM

compound: COc1cc([N+](=O)[O-])cc(/C=N/NC(=O)C(C)Nc2cccc(C)c2)c1O (stereo not drawn)
IC50: 71.6 µM

compound: O=C(CCc1ccccc1)NNC(=S)NC(=O)c1ccccc1
IC50: 122 µM

compound: O=C(N/N=C/c1ccc([N+](=O)[O-])o1)C(O)c1ccccc1 (stereo not drawn)
IC50: 13.1 µM

compound: CCOc1ccc(-c2cc(C)[n+](CCN(CC)CC)c(-c3ccc(OCC)cc3)c2)cc1
IC50: 105 µM

compound: CCN(CC)c1ccc(CNc2nc3ccccc3n2CCN2CCCCC2)cc1
IC50: 145 µM

compound: c1ccc(Nc2nc(NCC3CCCO3)c3ccccc3n2)cc1 (stereo not drawn)
IC50: 16.8 µM

compound: CCOc1ccc(Nc2c3ccccc3nc3ccccc23)cc1
IC50: 56.7 µM

compound: CC[C@H]1OC(=O)[C@H](C)[C@@H](O[C@H]2C[C@@](C)(OC)[C@@H](O)[C@H](C)O2)[C@H](C)[C@@H](O[C@@H]2O[C@H](C)C[C@H](N(C)C)[C@H]2O)[C@](C)(OC)C[C@@H](C)C(=O)[C@H](C)[C@@H](O)[C@]1(C)O
IC50: 125 µM

compound: CC(/C=N/Nc1nc2ccccc2[nH]1)=C\c1ccccc1
IC50: 71.8 µM

compound: CC1=NOC(=O)/C1=C/c1ccc(O)cc1
IC50: 117 µM

compound: N=C(N)c1ccc(/C=C/c2ccc(C(=N)N)cc2O)cc1
IC50: 16.2 µM

compound: CSc1cccc(NC(=O)/C=C/c2ccccc2)c1
IC50: 84.9 µM

compound: O=[N+]([O-])c1ccc(/C=N/NC(=S)Nc2ccc(Cl)cc2Cl)s1
IC50: 25 µM

compound: Cc1nc2c(=O)n(C)c(=O)nc-2n(C)n1
IC50: 0.781 µM

compound: O=[N+]([O-])c1ccc(O)c(/C=N/Nc2ccccn2)c1
IC50: 15.2 µM

compound: Cc1cc(Cl)c(OCCCNCc2ccccc2)c(Br)c1
IC50: 81.7 µM

compound: CC(=O)NC(c1ccc2ccccc2c1)c1ccc2cccnc2c1O (stereo not drawn)
IC50: 68.4 µM

compound: N#Cc1nc(Cc2cccc3ccccc23)oc1NCCCN1CCOCC1
IC50: 62 µM

compound: O=C(NC(C(=O)c1ccccc1)n1c(=O)cc[nH]c1=S)c1ccccc1 (stereo not drawn)
IC50: 120 µM

compound: COc1cc(C)c(Cc2cnc(N)nc2N)cc1OC
IC50: 2.4 µM

compound: C#CCOCCOCCOCCNc1nc(N2CCN(C(=O)CCCCCCCCCCNC(=O)[C@H](CO)n3cc(CCCCCN)nn3)CC2)nc(N2CCN(C(=O)CCCCCCCCCCNC(=O)[C@H](CCCN=C(N)N)n3cc(C[C@@H](C)CC)nn3)CC2)n1
IC50: 142 µM

compound: CN(C)CCCN(C(=O)COc1ccccc1)c1nc2ccc(Cl)cc2s1
IC50: 141 µM

compound: O=C1C(Cl)=C(NCc2cccnc2)C(=O)c2ccccc21
IC50: 41.6 µM

compound: Cc1cc(NC(=O)c2ccccc2)sc1C
IC50: 84.3 µM

compound: CC(C)(c1ccccc1)c1ccc(OCCCN2CCNCC2)cc1
IC50: 114 µM
